B1: CDS2 (parent)
chain: IHSIALSTFASLIGPFGGFFASGF

Variants of: B1
assay-notes: protein stability index of a GFP-peptide fusion (GPS, HEK-293T) (PSI 1-6); higher = more stable;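 further: lentivirally expressed fusions sorted by FACS into six bins by GFP to DsRed ratio, PSI derived from sequencing read proportions per bin multiplied by bin number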
experimental-context: c terminus: a fixed tail appended
Use 3 as the dividing line for protein stability index, with the line itself on the Satisfied side and lower values as Not satisfied.

- variant-string: "T8Q"
  qualitative-label: "Not satisfied"
- variant-string: "S3Q"
  qualitative-label: "Not satisfied"
- variant-string: "F9D"
  qualitative-label: "Not satisfied"
- variant-string: "S11R"
  qualitative-label: "Not satisfied"
- variant-string: "G23M"
  qualitative-label: "Satisfied"
- variant-string: "F20N"
  qualitative-label: "Not satisfied"
- variant-string: "F19V"
  qualitative-label: "Not satisfied"
- variant-string: "S11T"
  qualitative-label: "Not satisfied"
- variant-string: "S11K"
  qualitative-label: "Satisfied"
- variant-string: "H2I"
  qualitative-label: "Not satisfied"
- variant-string: "F24M"
  qualitative-label: "Not satisfied"
- variant-string: "F9R"
  qualitative-label: "Satisfied"
- variant-string: "A5S"
  qualitative-label: "Satisfied"
- variant-string: "G18P"
  qualitative-label: "Not satisfied"
- variant-string: "H2C"
  qualitative-label: "Satisfied"
- variant-string: "G18W"
  qualitative-label: "Not satisfied"
- variant-string: "G23E"
  qualitative-label: "Satisfied"
- variant-string: "L12R"
  qualitative-label: "Not satisfied"
- variant-string: "G14M"
  qualitative-label: "Not satisfied"
- variant-string: "S22W"
  qualitative-label: "Not satisfied"
- variant-string: "G18D"
  qualitative-label: "Satisfied"
- variant-string: "A10N"
  qualitative-label: "Not satisfied"
- variant-string: "G18C"
  qualitative-label: "Not satisfied"
- variant-string: "S11Y"
  qualitative-label: "Satisfied"
- variant-string: "G17F"
  qualitative-label: "Not satisfied"
- variant-string: "S11V"
  qualitative-label: "Not satisfied"
- variant-string: "A21Y"
  qualitative-label: "Satisfied"
- variant-string: "G18S"
  qualitative-label: "Not satisfied"
- variant-string: "F9W"
  qualitative-label: "Not satisfied"
- variant-string: "S7C"
  qualitative-label: "Not satisfied"
- variant-string: "S3P"
  qualitative-label: "Not satisfied"
- variant-string: "L6E"
  qualitative-label: "Satisfied"
- variant-string: "F19R"
  qualitative-label: "Not satisfied"
- variant-string: "T8V"
  qualitative-label: "Not satisfied"
- variant-string: "F19N"
  qualitative-label: "Satisfied"
- variant-string: "A10E"
  qualitative-label: "Satisfied"
- variant-string: "A5P"
  qualitative-label: "Not satisfied"
- variant-string: "F24S"
  qualitative-label: "Not satisfied"
- variant-string: "A10S"
  qualitative-label: "Not satisfied"
- variant-string: "G14V"
  qualitative-label: "Not satisfied"
- variant-string: "I13S"
  qualitative-label: "Not satisfied"
- variant-string: "A10P"
  qualitative-label: "Not satisfied"
- variant-string: "A5Q"
  qualitative-label: "Satisfied"
- variant-string: "F9I"
  qualitative-label: "Satisfied"
- variant-string: "S3N"
  qualitative-label: "Satisfied"
- variant-string: "I13G"
  qualitative-label: "Not satisfied"
- variant-string: "L12G"
  qualitative-label: "Satisfied"
- variant-string: "S22H"
  qualitative-label: "Not satisfied"
- variant-string: "H2W"
  qualitative-label: "Not satisfied"
- variant-string: "G17V"
  qualitative-label: "Not satisfied"
- variant-string: "S3I"
  qualitative-label: "Satisfied"
- variant-string: "S7A"
  qualitative-label: "Not satisfied"
- variant-string: "H2P"
  qualitative-label: "Not satisfied"
- variant-string: "I13W"
  qualitative-label: "Satisfied"
- variant-string: "T8M"
  qualitative-label: "Not satisfied"
- variant-string: "L6A"
  qualitative-label: "Not satisfied"
- variant-string: "S7R"
  qualitative-label: "Satisfied"
- variant-string: "F20A"
  qualitative-label: "Not satisfied"
- variant-string: "I13A"
  qualitative-label: "Not satisfied"
- variant-string: "F19G"
  qualitative-label: "Satisfied"
- variant-string: "A5R"
  qualitative-label: "Satisfied"
- variant-string: "F19K"
  qualitative-label: "Satisfied"
- variant-string: "F19H"
  qualitative-label: "Not satisfied"
- variant-string: "G14N"
  qualitative-label: "Not satisfied"
- variant-string: "I1H"
  qualitative-label: "Not satisfied"
- variant-string: "G17M"
  qualitative-label: "Not satisfied"
- variant-string: "F16Y"
  qualitative-label: "Not satisfied"
- variant-string: "S3D"
  qualitative-label: "Satisfied"
- variant-string: "S22Q"
  qualitative-label: "Not satisfied"
- variant-string: "A21P"
  qualitative-label: "Not satisfied"
- variant-string: "A5C"
  qualitative-label: "Satisfied"
- variant-string: "I1S"
  qualitative-label: "Not satisfied"
- variant-string: "G23P"
  qualitative-label: "Not satisfied"
- variant-string: "I13E"
  qualitative-label: "Not satisfied"
- variant-string: "F20P"
  qualitative-label: "Satisfied"
- variant-string: "L6N"
  qualitative-label: "Not satisfied"
- variant-string: "A21E"
  qualitative-label: "Not satisfied"
